- measurement.protocol: Pharmacokinetic analysis of RA in an SH-SY5Y xenograft model (retinoid concentrations in plasma, liver, tumour by LC/MS)
- Type: in vivo, CD-1 nude mice
- recorded.conditions: after 13cisRA 100 mg kg^−1 oral; liver; 2 h; label = retinoid measured
- Procedure: All in vivo experiments were approved by the relevant institutional animal welfare committees, and performed according to national law. […] Resolution of retinoids was performed with a Luna C18(2) column (3 μm, 50 mm × 2 mm) using a Perkin Elmer LC (Beaconsfield, UK) system, consisting of a vacuum degasser, two series 200 pumps, a thermostatically controlled series 200 autosampler and a Waters 2487 UV absorbance detector. […]
reported.endpoint: % Total retinoids, liver, 2 h (%)
Give just the numeric value; % need not be written.

CC1=C(/C=C/C(C)=C/C=C/C(C)=C/C(=O)O)C(C)(C)CCC1=O [AT-4-oxoRA, all-trans-4-oxo-RA] : 8
CC1=C(/C=C/C(C)=C/C=C/C(C)=C/C(=O)O)C(C)(C)CCC1 [ATRA, all-trans-retinoic acid] : 1
CC1=C(/C=C/C(C)=C/C=C/C(C)=C\C(=O)O)C(C)(C)CCC1 [13cisRA, 13-cis-retinoic acid] : 58

Continue with the next molecule.
Note to self: % Total retinoids, liver, 2 h recorded for CC1=C(/C=C/C(C)=C/C=C/C(C)=C\C(=O)O)C(C)(C)CCC1=O [13cis-4-oxoRA, 13-cis-4-oxo-RA] was 33

* * *

// reported concentration at 0.5 h per item
- measurement.protocol: Pharmacokinetic analysis of RA in an SH-SY5Y xenograft model (retinoid concentrations in plasma, liver, tumour by LC/MS)
- Format: in vivo, CD-1 nude mice
- recorded.conditions: female, CD-1 nu/nu (athymic nude), mouse, plasma, po, 100 mg kg^−1, after 13cisRA 100 mg kg^−1 oral; plasma; 0.5 h; label = retinoid measured; read-out: Plasma concentration, 0.5 h
Expressed in µM, but write only the number.

CC1=C(/C=C/C(C)=C/C=C/C(C)=C/C(=O)O)C(C)(C)CCC1 [ATRA, all-trans-retinoic acid] : 0.69

Consider the additional compound presented here.
Measured concentration at 0.5 h of CC1=C(/C=C/C(C)=C/C=C/C(C)=C\C(=O)O)C(C)(C)CCC1 [13cisRA, 13-cis-retinoic acid] : 14.2

* * *

- measurement.protocol: Pharmacokinetic analysis of RA in an SH-SY5Y xenograft model (retinoid concentrations in plasma, liver, tumour by LC/MS)
- Assay type: in vivo, CD-1 nude mice
- recorded.conditions: after 13cisRA 100 mg kg^−1 oral; plasma; 6 h; label = retinoid measured
- Description: All in vivo experiments were approved by the relevant institutional animal welfare committees, and performed according to national law. […] Resolution of retinoids was performed with a Luna C18(2) column (3 μm, 50 mm × 2 mm) using a Perkin Elmer LC (Beaconsfield, UK) system, consisting of a vacuum degasser, two series 200 pumps, a thermostatically controlled series 200 autosampler and a Waters 2487 UV absorbance detector. […]
Overview of reported % Total retinoids, plasma, 6 h across a group of molecules:
Answer with a number only, understood to be in %.

CC1=C(/C=C/C(C)=C/C=C/C(C)=C\C(=O)O)C(C)(C)CCC1 [13cisRA, 13-cis-retinoic acid] : 78
CC1=C(/C=C/C(C)=C/C=C/C(C)=C/C(=O)O)C(C)(C)CCC1=O [AT-4-oxoRA, all-trans-4-oxo-RA] : 0
CC1=C(/C=C/C(C)=C/C=C/C(C)=C\C(=O)O)C(C)(C)CCC1=O [13cis-4-oxoRA, 13-cis-4-oxo-RA] : 20

Now for a further molecule.
// field: % Total retinoids, plasma, 6 h; key: CC1=C(/C=C/C(C)=C/C=C/C(C)=C/C(=O)O)C(C)(C)CCC1 [ATRA, all-trans-retinoic acid] ; value = 1
